Kindly state Percent Effect for each of the entries shown.
# System: Wolbachia pipientis
# Assay Protocol: Anti-Wolbachia Cell-Based Screen
# Assay type: functional
# Design: scale not given: in the data most compounds retested in dose-response had high values
# Assay Context: 5 µM
The campaign covered roughly 48,000 compounds. About 13,000 (27%) showed an effect of 50% or more. This is one part of the list.
Respond numerically; units are % and should not be typed.

Request: Query (compound): CC1CCN(C(=O)CSc2nc3c(cnn3CCO)c(=O)[nH]2)CC1 ; field requested: Percent Effect
Result: 123.1

Request: Query (compound): CCCc1cc(C(=O)NC(c2ccccc2)c2n[nH]c(C)n2)[nH]n1 (stereo not drawn) ; field requested: Percent Effect
Result: 3.333

Request: Query (compound): CN(CCCNS(=O)(=O)N1CCC2(CC1)OCCO2)c1ccccc1 ; field requested: Percent Effect
Result: 15.24

Request: Query (compound): CSc1ccc(S(=O)(=O)NC2CNC(=O)C2)cc1 (stereo not drawn) ; field requested: Percent Effect
Result: -0.4933

Request: Query (compound): CN(Cc1ccncc1)C(=O)Nc1cnn(CC(N)=O)c1 ; field requested: Percent Effect
Result: -7.922

Request: Query (compound): CC(C)N1CC2(CCCN(Cc3noc(C4CCCC4)n3)C2)CCC1=O (stereo not drawn) ; field requested: Percent Effect
Result: 0.7717

Request: Query (compound): CC(Cn1ccnc1)NS(=O)(=O)c1ccc(F)c(Cl)c1 (stereo not drawn) ; field requested: Percent Effect
Result: -9.501

Request: Query (compound): Cc1noc(C2CCCN(CC(=O)N3CCc4ccccc4C3)C2)n1 (stereo not drawn) ; field requested: Percent Effect
Result: 4.147

Request: Query (compound): O=C1CC(NS(=O)(=O)c2cccc(F)c2)CN1 (stereo not drawn) ; field requested: Percent Effect
Result: 126.5

Request: Query (compound): Cc1nc(C2CCCN2Cc2cc(Cl)c3c(c2)OCCO3)no1 (stereo not drawn) ; field requested: Percent Effect
Result: -1.319

Request: Query (compound): COCCc1noc(CN(C)C(=O)C(C)N2CCc3ccccc3C2)n1 (stereo not drawn) ; field requested: Percent Effect
Result: 110.4

Request: Query (compound): Cc1cc(C2CCCN2Cc2ccc(S(=O)(=O)N(C)C)o2)on1 (stereo not drawn) ; field requested: Percent Effect
Result: 125.1

Request: Query (compound): CCN(C(=O)CN1CCCC1c1cc(C)no1)c1ccccc1C (stereo not drawn) ; field requested: Percent Effect
Result: -1.91

Request: Query (compound): CN(Cc1cc(C2CC2)on1)C(=O)C(c1cccnc1)N1CCCC1 (stereo not drawn) ; field requested: Percent Effect
Result: -7.414

Request: Query (compound): O=C1CC(NS(=O)(=O)c2ccc(Br)cc2)CN1 (stereo not drawn) ; field requested: Percent Effect
Result: 151.1

Request: Query (compound): CN(CC(=O)N1CCCC1)Cc1nc2c(cnn2C)c(=O)[nH]1 ; field requested: Percent Effect
Result: 28.73

Request: Query (compound): Cc1cccc(S(=O)(=O)NC2CCN(CC(F)(F)F)C2)c1 (stereo not drawn) ; field requested: Percent Effect
Result: -3.118

Request: Query (compound): CC(C(=O)N(C)Cc1noc(C2CCC2)n1)N1CCc2ccccc2C1 (stereo not drawn) ; field requested: Percent Effect
Result: 96.98

Request: Query (compound): Cn1nnn(-c2ccc(NS(=O)(=O)c3ccc(F)c(Cl)c3)cc2)c1=O ; field requested: Percent Effect
Result: -5.508

Request: Query (compound): O=C(O)[C@@H]1CN(C2CCOCC2)C[C@H]1C1CC1 ; field requested: Percent Effect
Result: 12.44

Request: Query (compound): O=C1CC(NS(=O)(=O)c2ccc(F)c(Cl)c2)CN1 (stereo not drawn) ; field requested: Percent Effect
Result: 135.6

Request: Query (compound): O=C(c1ccc(S(=O)(=O)NC2CCC2)cc1)N1CC[C@H]2CNC[C@H]21 ; field requested: Percent Effect
Result: -0.3981

Request: Query (compound): CC(C(=O)N(C)C)N1CCc2onc(-c3cccc(F)c3)c2C1 (stereo not drawn) ; field requested: Percent Effect
Result: -12.34

====

# Tested on: Wolbachia pipientis
# Assay Protocol: Anti-Wolbachia Cell-Based Screen
# Type: functional
# Set-up: scale not given: in the data most compounds retested in dose-response had high values
# Assay Context: 5 µM
Hit rate of the full screen: of about 48,000 compounds, about 13,000 (27%) showed an effect of 50% or more. The list shows a part of the results.
Measurement Label: Percent Effect (%)
Respond numerically; units are % and should not be typed.

Request: Query (molecule): CCc1nnc(CN(CC)C(=O)C(C)n2ccnc2C(C)C)o1 (configuration not stated) ; field requested: Percent Effect
Result: 83.87

Request: Query (molecule): CCOC(=O)N1CCN(C(=O)C(C)n2ccnc2C(C)C)CC1 (configuration not stated) ; field requested: Percent Effect
Result: -18.05

Request: Query (molecule): C[C@@H]1CC[C@@H](C)N1C(=O)c1cc(COc2ccccc2)[nH]n1 ; field requested: Percent Effect
Result: 96.55

Request: Query (molecule): Cc1ccc(CN(C)C(=O)C(C)n2ccnc2C(C)C)o1 (configuration not stated) ; field requested: Percent Effect
Result: 90.15

Request: Query (molecule): OC(CN(Cc1ccccc1)Cc1ccon1)c1ccco1 (configuration not stated) ; field requested: Percent Effect
Result: 27.39

Request: Query (molecule): CNS(=O)(=O)c1ccc(C(=O)N2CCCC2c2ccccc2)o1 (configuration not stated) ; field requested: Percent Effect
Result: -8.711

Request: Query (molecule): CNS(=O)(=O)c1ccc(C(=O)N2CCCC2c2cnn(C)c2)o1 (configuration not stated) ; field requested: Percent Effect
Result: -2.298

Request: Query (molecule): CCc1nnc(CN(CC)C(=O)CCc2scnc2C)o1 ; field requested: Percent Effect
Result: -3.701

Request: Query (molecule): CC(=O)Nc1nc(C(=O)N2CCCC2c2ccccc2C)cs1 (configuration not stated) ; field requested: Percent Effect
Result: -3.064

Request: Query (molecule): CNS(=O)(=O)c1ccc(C(=O)N2CCCC2Cc2ccccc2)o1 (configuration not stated) ; field requested: Percent Effect
Result: 9.44

Request: Query (molecule): CNS(=O)(=O)c1ccc(C(=O)N2CCCC2c2ccncc2)o1 (configuration not stated) ; field requested: Percent Effect
Result: 101.5

Request: Query (molecule): CNS(=O)(=O)c1ccc(C(=O)N2CCCC2c2ccccc2C)o1 (configuration not stated) ; field requested: Percent Effect
Result: 116.1

====

Kindly state Percent Effect for each of the entries shown.
# System: Wolbachia pipientis
# Assay Protocol: Anti-Wolbachia Cell-Based Screen
# Assay type: functional
# Set-up: scale not given: in the data most compounds retested in dose-response had high values
# Assay Context: 5 µM
About 13,000 (27%) of roughly 48,000 compounds showed an effect of 50% or more. This is one part of the list.
Respond numerically; units are % and should not be typed.

Request: Query (compound): COc1ccc(-c2cc3nn(CC(=O)NC(C)C)c(=O)n3c(C)n2)cc1 ; field requested: Percent Effect
Result: 109.7

Request: Query (compound): Cc1ccc2nc(C)cc(C(=O)NC(C)c3nnn[nH]3)c2c1 (stereo not drawn) ; field requested: Percent Effect
Result: -5.758

Request: Query (compound): CCN(Cc1nc2c(cnn2C)c(=O)[nH]1)c1cccc(F)c1 ; field requested: Percent Effect
Result: 1.042

Request: Query (compound): Cc1nc(C(C)(C)NCc2ncc(C3CC3)o2)sc1C ; field requested: Percent Effect
Result: -9.268

Request: Query (compound): CC(=O)N1CC[C@H]2OCC[C@@H](C(=O)Nc3cccnc3C)[C@@H]2C1 ; field requested: Percent Effect
Result: 106.3

Request: Query (compound): COC(=O)C(C)(C)NC(=O)c1cc2sc(N(C)C)nc2s1 ; field requested: Percent Effect
Result: -3.943

Request: Query (compound): CCc1cc(N(C)Cc2ncc[nH]2)nc(N2CCOCC2)n1 ; field requested: Percent Effect
Result: -9.08

Request: Query (compound): CC(=O)N1CCN(c2cc(-c3ccccc3)nc3c(C)c(C)nn23)CC1 ; field requested: Percent Effect
Result: -0.0371

Request: Query (compound): CC(C)NC(=O)[C@@H]1CCO[C@@H]2CCN(c3ncccn3)C[C@H]21 ; field requested: Percent Effect
Result: -20.97

Request: Query (compound): COc1nc2ccn(CCc3cc(O)nc(C)n3)c(=O)c2cc1C#N ; field requested: Percent Effect
Result: -7.353

Request: Query (compound): CCCNC(=O)CN1CCN(Cc2csc(C(C)(C)C)n2)CC1 ; field requested: Percent Effect
Result: -11.65

Request: Query (compound): CC(C)C1CN(C(=O)c2cc(C3CC3)n[nH]2)CCC(=O)N1CC1CC1 (stereo not drawn) ; field requested: Percent Effect
Result: 29.09

Request: Query (compound): COc1ccc(NC(=O)Cn2nc(C)c(C)cc2=O)cc1 ; field requested: Percent Effect
Result: -2.265

Request: Query (compound): CCNc1ccc(-c2ccnc3c2ccn3C)nn1 ; field requested: Percent Effect
Result: -1.559

Request: Query (compound): CN(Cc1nc2c(cnn2C)c(=O)[nH]1)Cc1ccc(F)cc1F ; field requested: Percent Effect
Result: -0.6664

Request: Query (compound): COc1ccc(-c2c(C)nn3c(=N)c(C#N)n[nH]c23)cc1 ; field requested: Percent Effect
Result: 88.05

Request: Query (compound): CN(CCCOc1ccccc1)Cc1nc2c(cnn2C)c(=O)[nH]1 ; field requested: Percent Effect
Result: 105

Request: Query (compound): COCC(=O)N[C@H](C)c1c(-c2ccc(OC)cc2)noc1C(=O)O ; field requested: Percent Effect
Result: -10.1

Request: Query (compound): COc1ccc(OCCN(C)Cc2nc3c(cnn3C)c(=O)[nH]2)cc1 ; field requested: Percent Effect
Result: 98.39

Request: Query (compound): Cc1ccccc1CN(C)Cc1nc2c(cnn2C)c(=O)[nH]1 ; field requested: Percent Effect
Result: 16.78

Request: Query (compound): COc1ccc(-c2c(C)nn3c(=N)c(C#N)n[nH]c23)cc1OC ; field requested: Percent Effect
Result: 107.4

Request: Query (compound): Cn1ccc2c(-c3cc(N)nc(N4CCOCC4)n3)ccnc21 ; field requested: Percent Effect
Result: 88.78

Request: Query (compound): COc1ccc(C)cc1CN(C)Cc1nc2c(cnn2C)c(=O)[nH]1 ; field requested: Percent Effect
Result: -1.165

Data credit: ChEMBL document CHEMBL3988442
